target: P. ae LpxC enzyme (Pseudomonas aeruginosa); experiment: Enzyme inhibition testing (fluorescamine assay); format: biochemical; conditions: @0.5 μg/ml; read-out: ENZYME (percent inhibition)
Sequence (P47205 whole entry): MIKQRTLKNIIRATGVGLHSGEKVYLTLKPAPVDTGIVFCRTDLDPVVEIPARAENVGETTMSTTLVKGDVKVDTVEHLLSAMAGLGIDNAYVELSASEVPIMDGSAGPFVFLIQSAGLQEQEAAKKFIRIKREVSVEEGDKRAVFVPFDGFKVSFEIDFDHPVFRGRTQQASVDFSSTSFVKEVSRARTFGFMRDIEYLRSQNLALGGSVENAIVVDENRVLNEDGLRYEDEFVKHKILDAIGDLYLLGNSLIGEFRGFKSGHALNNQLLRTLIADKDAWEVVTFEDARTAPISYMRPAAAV
inhibition at 0.5 µg/mL values by entry
// note: answer is a bare numeric in %

Solved cases (4 shown):
Q) Would you kindly share the measured inhibition at 0.5 µg/mL for CCCc1ccc(-c2ccc(C(=O)N3CC[C@H](F)[C@H]3C(=O)NO)cc2)cc1 ?
A) 87

Q) And the next one, CCCc1ccc(-c2ccc(C(=O)N[C@@H](Cn3cccn3)C(=O)NO)cc2)cc1 ?
A) 100

Q) Same lookup for CCc1ccc(-c2ccc(C(=O)N3CC[C@@H](N)[C@H]3C(=O)NO)cc2)cc1 , please.
A) 93

Q) Field entry: CCCc1ccc(-c2ccc(C(=O)N3CC[C@H](NS(C)(=O)=O)[C@H]3C(=O)NO)cc2)cc1
A) 55

More entries:
Q) Item CCCc1ccc(-c2ccc(C(=O)N3CC[C@H](NC)[C@H]3C(=O)NO)cc2)cc1 has what recorded inhibition at 0.5 µg/mL?
A) 29

Q) Record: CCCc1ccc(-c2ccc(C(=O)N[C@@H](CCSC)C(=O)NO)cc2)cc1
A) 72

The values you see were collected from patent US8088804B2.
